B1: Azoarcus group I ribozyme (parent)
chain: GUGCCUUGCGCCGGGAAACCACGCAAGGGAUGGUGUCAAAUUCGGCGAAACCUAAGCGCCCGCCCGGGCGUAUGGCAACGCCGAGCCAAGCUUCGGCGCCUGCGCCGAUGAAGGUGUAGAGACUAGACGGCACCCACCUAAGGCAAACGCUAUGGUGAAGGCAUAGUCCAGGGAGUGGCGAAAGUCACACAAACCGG

Variants of: B1
METHOD_DESCRIPTION: reverse-splicing fitness (ratio to wild type); higher = more active; in vitro selection; Mg2+ level not given
# reverse-splicing fitness binned as bucket 1 (below 0.006), bucket 2 (0.006 to below 0.01), bucket 3 (0.01 or more)

Known results for variants:
{"VARIANT_NAME": "C82U C150G U176G", "LABEL_VALUE": "bucket 2"}
{"VARIANT_NAME": "C82A A111U A145G C150G C169U U176G", "LABEL_VALUE": "bucket 2"}
{"VARIANT_NAME": "C82U A120U A145C C150A C169G U176G", "LABEL_VALUE": "bucket 1"}
{"VARIANT_NAME": "C82G A111G A120C A145C C150U C169U U176A", "LABEL_VALUE": "bucket 3"}
{"VARIANT_NAME": "C82A A111C A120U C169A", "LABEL_VALUE": "bucket 1"}

### Prompt Band for C82G A111G A120C A145C C150U C169A U176A ?
### Response bucket 3

### Prompt Band for C82A A111C A120U A145C C150A C169U U176C ?
### Response bucket 1

### Prompt Band for C82U A111G A120G A145U C150U C169U U176C ?
### Response bucket 3

### Prompt Band for A120C A145C C150U C169G U176A ?
### Response bucket 3

### Prompt Band for A111U A145G C150A U176A ?
### Response bucket 3

### Prompt Band for C82A A111U C150G C169U U176C ?
### Response bucket 3

### Prompt Band for C82U A111U A120C A145G C150A U176G ?
### Response bucket 2

### Prompt Band for C82A A111U C150U U176A ?
### Response bucket 3

All values here come from the RNAGym collection of RNA variant scans (doi:10.1093/molbev/msab373).
